Property: melting point; scope: individual compounds

| compound | reported_measurement |
| --- | --- |
| Cc1nc(N)nc(N)c1CCCc1ccc(Cl)cc1Cl | 181 to 185 °C |
| N#Cc1ncn2c1[C@@H]1CCN1C(=O)c1ccccc1-2 | 232 to 234 °C |

### Prompt State the recorded melting point for this entry: `CCOC(=O)C(=O)c1cn(CCNC(=O)OC(C)(C)C)c2ccccc12`
### Response 114 to 115 °C

### Prompt // query melting point value for entry `CCc1cc2c(s1)SCCc1cc(=O)n(-c3ccc(Cl)cc3)nc1-2`
### Response 127 to 128 °C

### Prompt // lookup melting point for CCC(COc1ccccc1COc1cccc2ccc(=O)[nH]c12)OC(C)=O (stereo not given)
### Response 112 to 114 °C

* * *

Each item that follows carries a reported melting point.

Example results:
| compound | melting point |
| --- | --- |
| CCCc1nn(-c2ccc(C(F)(F)F)cn2)cc1CCCOc1ccc(CCC(=O)O)c(OCC)c1 | 119 to 120 °C |
| C#CCOC(=O)C1=C(N)NC(N)=C(C(=O)OCC#C)C1c1cccc([N+](=O)[O-])c1 | 170 °C |
| O=C(O)Cc1ccccc1OCCC(c1ccccc1)(c1ccccc1)c1ccccc1 | 79 to 80 °C |
| Cc1cc(O)c(O)cc1S(=O)(=O)c1ccc(F)cc1 | 175 to 177 °C |
| COC(=O)c1ccccc1NC(=O)Cc1ccccc1OC | 116 to 117 °C |
| CC1NC(=O)NN=C1c1ccc(N)c(Cl)c1 (stereo not given) | 229 to 231 °C |

### Prompt Look up melting point: `BrCCON=C1c2ccccc2-n2cccc21`
### Response 65 °C

### Prompt What value of melting point has been reported for the following compound? `NS(=O)(=O)c1ccc(-n2nc(C(F)(F)F)cc2-c2ccc(-c3cocn3)cc2)cc1`
### Response 170 to 172 °C

### Prompt Recorded melting point of `O=[N+]([O-])c1cccc(OCCn2ccnc2)c1` , please.
### Response 52.5 to 55.5 °C

### Prompt Entry `CC(C)OC(=O)c1cc(N)c(F)c(Cl)n1` : reported melting point = ?
### Response 191 to 192 °C

* * *

melting point for assorted molecules

| molecule | melting point |
| --- | --- |
| NS(=O)(=O)Oc1cccc(Cl)c1Cl | 116 to 117 °C |
| O=C(O)Cc1c(C(=O)c2ccccc2)[nH]c2cc(Cl)c(Cl)cc12 | 206 to 210 °C |
| COC(=O)c1ccc(=O)n(CCNC(=O)c2cnccn2)c1 | 195 to 197 °C |
| c1ccc(-c2cc3ncnc(Nc4ccc5c(ccn5CCN5CCOCC5)c4)c3s2)cc1 | 225 to 226 °C |
| CN(C)CCCNc1nc2cc(Cl)c(Cl)cc2nc1-c1ccccn1 | 59 to 61 °C |
| OC(C=C(Cl)Cl)(Cn1cncn1)c1ccc(Cl)cc1 (stereo not given) | 95 to 99 °C |

### Prompt If you can, please state the reported melting point value of `O=c1ccc2c(-c3ccc(O)cc3)nccc2[nH]1` .
### Response > 300 °C

### Prompt // query melting point value for entry `CCCNC(=O)[C@H](Cc1ccccc1)NC(=O)CNC(=O)OC(C)(C)C`
### Response 166 to 168 °C

### Prompt What value of melting point has been reported for the following molecule? `c1ccc2oc(NCc3ccncc3)nc2c1`
### Response 148 °C

### Prompt // returns reported melting point for input `NC(=O)c1c(Cl)c(-c2ccccc2)n2c1CN(S(=O)(=O)c1ccc(-c3ccon3)s1)CC2`
### Response 186 to 190 °C
